Cited source: paper PMC9065260

Overview of recorded IC50 for various compounds
- Test system: KYSE450 cells
- Test description: MTT assay for cell proliferation and cytotoxicity
- Format: cell-based
- Condition label: Homo sapiens, KYSE-450; MTT, 48 h, mean ± SD; read-out: IC50 KYSE450
Record the value in µM, omitting the unit from your answer.

q: Fill in the blank: the reported IC50 of COCCOc1cc2ncnc(Nc3cccc(-c4cn(-c5ccccc5C(F)(F)F)nn4)c3)c2cc1OCCOC [Compound 3p] is ____.
a: 24.9

q: Fill in the blank: the reported IC50 of COCCOc1cc2ncnc(Nc3cccc(-c4cn(Cc5ccccc5Br)nn4)c3)c2cc1OCCOC [Compound 3c] is ____.
a: 5.47

###

- System: human esophageal epithelial cell SHEE
- Test description: MTT assay, toxicity against normal cells
- Assay type: cell-based
- Condition label: MTT, normal human esophageal epithelial cells, mean ± SD, read-out: IC50 SHEE
Measured metric: pIC50
Kindly note that pIC50 refers to -log10 of the concentration in mol/L and answer with the value alone.

q: Recorded pIC50 for `CCOc1cccc(-n2cc(-c3cccc(Nc4ncnc5cc(OCCOC)c(OCCOC)cc45)c3)nn2)c1` with human esophageal epithelial cell SHEE, please?
a: 4.65

New cases:
q: Recorded pIC50 for `COCCOc1cc2ncnc(Nc3cccc(-c4cn(-c5ccc(OC)cc5OC)nn4)c3)c2cc1OCCOC` with human esophageal epithelial cell SHEE, please?
a: 4.55

###

Overview of recorded melting point for various molecules

Known melting point results, listed for orientation:
q: Fill in the blank: the reported melting point of `COCCOc1cc2ncnc(Nc3cccc(-c4cn(Cc5ccccc5I)nn4)c3)c2cc1OCCOC` is ____.
a: 93 to 96 °C

q: Fill in the blank: the reported melting point of `COCCOc1cc2ncnc(Nc3cccc(-c4cn(-c5ccc(C)cc5)nn4)c3)c2cc1OCCOC` is ____.
a: 95 to 98 °C

q: Fill in the blank: the reported melting point of `COCCOc1cc2ncnc(Nc3cccc(-c4cn(CCc5ccccc5)nn4)c3)c2cc1OCCOC` is ____.
a: 109 to 112 °C

New cases:
q: Fill in the blank: the reported melting point of `COCCOc1cc2ncnc(Nc3cccc(-c4cn(-c5ccccc5Cl)nn4)c3)c2cc1OCCOC` is ____.
a: 131 to 134 °C

q: Fill in the blank: the reported melting point of `COCCOc1cc2ncnc(Nc3cccc(-c4cn(-c5ccccc5F)nn4)c3)c2cc1OCCOC` is ____.
a: 83 to 86 °C

q: Fill in the blank: the reported melting point of `COCCOc1cc2ncnc(Nc3cccc(-c4cn(-c5ccc(Br)cc5)nn4)c3)c2cc1OCCOC` is ____.
a: 105 to 108 °C

q: Fill in the blank: the reported melting point of `COCCOc1cc2ncnc(Nc3cccc(-c4cn(-c5ccccc5Br)nn4)c3)c2cc1OCCOC` is ____.
a: 93 to 97 °C

q: Fill in the blank: the reported melting point of `COCCOc1cc2ncnc(Nc3cccc(-c4cn(-c5ccc(OC)cc5OC)nn4)c3)c2cc1OCCOC` is ____.
a: 85 to 88 °C

q: Fill in the blank: the reported melting point of `COCCOc1cc2ncnc(Nc3cccc(-c4cn(-c5cccc([N+](=O)[O-])c5)nn4)c3)c2cc1OCCOC` is ____.
a: 98 to 101 °C

q: Fill in the blank: the reported melting point of `CCOc1cccc(-n2cc(-c3cccc(Nc4ncnc5cc(OCCOC)c(OCCOC)cc45)c3)nn2)c1` is ____.
a: 110 to 114 °C

q: Fill in the blank: the reported melting point of `COCCOc1cc2ncnc(Nc3cccc(-c4cn(-c5ccc(F)cc5)nn4)c3)c2cc1OCCOC` is ____.
a: 88 to 91 °C

###

- Test system: KYSE410 cells
- Test description: MTT assay for cell proliferation and cytotoxicity
- Type: cell-based
- Condition label: Homo sapiens, KYSE-410; MTT, 48 h, mean ± SD; read-out: IC50 KYSE410
Measured metric: pIC50
Kindly note that pIC50 refers to -log10 of the concentration in mol/L and answer with the value alone.

q: Fill in the blank: the reported pIC50 of COCCOc1cc2ncnc(Nc3cccc(-c4cn(-c5ccccc5)nn4)c3)c2cc1OCCOC [Compound 3o] is ____.
a: 4.31

q: Fill in the blank: the reported pIC50 of COCCOc1cc2ncnc(Nc3cccc(-c4cn(-c5cccc([N+](=O)[O-])c5)nn4)c3)c2cc1OCCOC [Compound 3m] is ____.
a: 5.23

###

- Tested on: KYSE450 cells
- Test description: MTT assay for cell proliferation and cytotoxicity
- Type: cell-based
- Condition label: Homo sapiens, KYSE-450; MTT, 48 h, mean ± SD; read-out: IC50 KYSE450
Overview of recorded pIC50 for various compounds
Kindly note that pIC50 refers to -log10 of the concentration in mol/L and answer with the value alone.

Known pIC50 results, listed for orientation:
q: Fill in the blank: the reported pIC50 of COCCOc1cc2ncnc(Nc3cccc(-c4cn(-c5cccc([N+](=O)[O-])c5)nn4)c3)c2cc1OCCOC [Compound 3m] is ____.
a: 5.39

q: Fill in the blank: the reported pIC50 of COCCOc1cc2ncnc(Nc3cccc(-c4cn(Cc5ccccc5)nn4)c3)c2cc1OCCOC [Compound 3a] is ____.
a: 5.28

q: Fill in the blank: the reported pIC50 of COCCOc1cc2ncnc(Nc3cccc(-c4cn(-c5cccc(OC)c5)nn4)c3)c2cc1OCCOC [Compound 3e] is ____.
a: 5.20

q: Fill in the blank: the reported pIC50 of COCCOc1cc2ncnc(Nc3cccc(-c4cn(-c5ccccc5)nn4)c3)c2cc1OCCOC [Compound 3o] is ____.
a: 4.33

q: Fill in the blank: the reported pIC50 of COCCOc1cc2ncnc(Nc3cccc(-c4cn(-c5ccc(F)cc5)nn4)c3)c2cc1OCCOC [Compound 3g] is ____.
a: 4.35

New cases:
q: Fill in the blank: the reported pIC50 of COCCOc1cc2ncnc(Nc3cccc(-c4cn(-c5ccc(Br)cc5)nn4)c3)c2cc1OCCOC [Compound 3j] is ____.
a: 5.44

q: Fill in the blank: the reported pIC50 of COCCOc1cc2ncnc(Nc3cccc(-c4cn(-c5ccccc5F)nn4)c3)c2cc1OCCOC [Compound 3f] is ____.
a: 4.47

q: Fill in the blank: the reported pIC50 of COCCOc1cc2ncnc(Nc3cccc(-c4cn(-c5ccc(C)cc5O)nn4)c3)c2cc1OCCOC [Compound 3r] is ____.
a: 5.09

q: Fill in the blank: the reported pIC50 of CCOc1cccc(-n2cc(-c3cccc(Nc4ncnc5cc(OCCOC)c(OCCOC)cc45)c3)nn2)c1 [Compound 3n] is ____.
a: 4.89

q: Fill in the blank: the reported pIC50 of COCCOc1cc2ncnc(Nc3cccc(-c4cn(Cc5ccccc5I)nn4)c3)c2cc1OCCOC [Compound 3b] is ____.
a: 4.69

q: Fill in the blank: the reported pIC50 of COCCOc1cc2ncnc(Nc3cccc(-c4cn(Cc5cc(Br)cc(Br)c5)nn4)c3)c2cc1OCCOC [Compound 3d] is ____.
a: 5.37

q: Fill in the blank: the reported pIC50 of COCCOc1cc2ncnc(Nc3cccc(-c4cn(-c5ccccc5OC)nn4)c3)c2cc1OCCOC [Compound 3k] is ____.
a: 4.70

###

- System: KYSE70 cells
- Test description: MTT assay for cell proliferation and cytotoxicity
- Type: cell-based
- Condition label: Homo sapiens, KYSE-70; MTT, 48 h, mean ± SD; read-out: IC50 KYSE70
Measured metric: IC50 (µM)
Record the value in µM, omitting the unit from your answer.

q: Recorded IC50 for COCCOc1cc2ncnc(Nc3cccc(-c4cn(Cc5ccccc5I)nn4)c3)c2cc1OCCOC [Compound 3b] with KYSE70 cells, please?
a: 9.03

q: Recorded IC50 for COCCOc1cc2ncnc(Nc3cccc(-c4cn(-c5cccc([N+](=O)[O-])c5)nn4)c3)c2cc1OCCOC [Compound 3m] with KYSE70 cells, please?
a: 3.92

q: Recorded IC50 for COCCOc1cc2ncnc(Nc3cccc(-c4cn(-c5ccc(C)cc5O)nn4)c3)c2cc1OCCOC [Compound 3r] with KYSE70 cells, please?
a: 5.85

q: Recorded IC50 for COCCOc1cc2ncnc(Nc3cccc(-c4cn(-c5ccccc5OC)nn4)c3)c2cc1OCCOC [Compound 3k] with KYSE70 cells, please?
a: 16

Let us examine a further case.
q: Recorded IC50 for COCCOc1cc2ncnc(Nc3cccc(-c4cn(-c5ccc(Br)cc5)nn4)c3)c2cc1OCCOC [Compound 3j] with KYSE70 cells, please?
a: 3.72

###

- Test system: human esophageal epithelial cell SHEE
- Test description: MTT assay, toxicity against normal cells
- Type: cell-based
- Condition label: MTT, normal human esophageal epithelial cells, mean ± SD, read-out: IC50 SHEE
pIC50: −log10 of the molar value.
Criterion: pIC50 meeting or surpassing 5. Met: rule met. Not met: rule not met.

q: Can `COCCOc1cc2ncnc(Nc3cccc(-c4cn(-c5ccccc5)nn4)c3)c2cc1OCCOC` be said to have pIC50 at or above 5?
a: rule not met

q: Can `COCCOc1cc2ncnc(Nc3cccc(-c4cn(-c5ccc(C)cc5O)nn4)c3)c2cc1OCCOC` be said to have pIC50 at or above 5?
a: rule not met

q: Can `COCCOc1cc2ncnc(Nc3cccc(-c4cn(-c5ccccc5Br)nn4)c3)c2cc1OCCOC` be said to have pIC50 at or above 5?
a: rule met

q: Can `COCCOc1cc2ncnc(Nc3cccc(-c4cn(Cc5cc(Br)cc(Br)c5)nn4)c3)c2cc1OCCOC` be said to have pIC50 at or above 5?
a: rule not met

q: Can `COCCOc1cc2ncnc(Nc3cccc(-c4cn(CCc5ccccc5)nn4)c3)c2cc1OCCOC` be said to have pIC50 at or above 5?
a: rule not met

New cases:
q: Can `COCCOc1cc2ncnc(Nc3cccc(-c4cn(Cc5ccccc5Br)nn4)c3)c2cc1OCCOC` be said to have pIC50 at or above 5?
a: rule not met
